ASSAY TARGET: T1, extracellular domain of human FGFR1c expressed with C-terminal V5 and hexahistidine tags (human, UniProt P11362 22-376)
T1 construct: also called hFGFR1c-V5-6His
T1 sequence: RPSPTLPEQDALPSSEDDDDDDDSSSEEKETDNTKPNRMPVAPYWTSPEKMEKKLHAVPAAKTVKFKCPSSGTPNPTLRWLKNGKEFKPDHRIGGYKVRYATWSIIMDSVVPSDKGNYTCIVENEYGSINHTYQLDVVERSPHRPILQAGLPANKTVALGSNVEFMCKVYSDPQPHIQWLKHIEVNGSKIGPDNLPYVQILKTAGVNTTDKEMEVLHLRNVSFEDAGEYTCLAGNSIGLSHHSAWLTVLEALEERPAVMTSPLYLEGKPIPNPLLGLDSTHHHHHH
EXPERIMENT DESCRIPTION: SPR, mAb captured, 37 C
MEASURED PROPERTY: 180 nM hFGFR1c-V5-6His Bind (RU)

INSERT INTO results (binder, measured_property, recorded_measurement) VALUES
  ('H2aM8109N (antibody, V domains shown, mouse IgG2 Fc (H2aM prefix)) VH: QVQVVESGGGVVQPGRSLRLSCAASGFTFSSYGLHWVRQAPGKGLEWVAVIWHDGSHKYYADSVKGRFTISRDNSKNTLYLQMNSLRAEDTAVYYCARDGIPVAEDYYFYGMDVWGQGTTVTVSS VL: DIQMTQSPSSLSASVGDRVTITCRASQGIRNDLGWYQQKPGKAPKRLIYAASSLQSGVPSRFSGSGSGTEFTLTISSLQPEDFAIYYCLQHNSLTFGGGTKVEIK', '180 nM hFGFR1c-V5-6His Bind (RU)', '0.7 RU'),
  ('H2aM8098N (antibody, V domains shown, mouse IgG2 Fc (H2aM prefix)) VH: QLQLQESGPGLVKPSETLSLTCTVSGGSISSSNYYWDWIRQTPEKGLEWIGSIHYSGTSYYNPSLKSRVTISVDTSKNQFSLKLRSVTAADAAVYYCARQTSVYWYFDIWGHGTLVTVST VL: EIVLTQSPGTLSLSPGEGATLSCRASQSVRNNYLAWYQQKPGQAPRLLIYGASSRAIGIPDRFSGSGSGTDFTLTISRLEPKDFVVYYCQQYGGSLFTFGPGTKVDIK', '180 nM hFGFR1c-V5-6His Bind (RU)', '-1.4 RU');

Sourced from patent US20170174769A1
